system under test: purified HLA DRB3*0101 (Homo sapiens, UniProt P01903+P79483)
Construct: purified from EBV transformed homozygous cell lines or single MHC allele transfected 721.221, C1R, or fibroblast lines; made in house
assay remarks: HLA-DR radioligand binding inhibition assay, DRB3*0101
applied conditions: IC50 nM purified HLA DRB3 *0101, purified HLA DRB3*0101
measured property: IC50

molecule	observed measurement
CC[C@H](C)[C@H](NC(=O)CNC(=O)[C@H](CC(C)C)NC(=O)CN)C(=O)N[C@@H](CO)C(=O)N[C@@H](Cc1c[nH]c2ccccc12)C(=O)N[C@@H](CC(C)C)C(=O)NCC(=O)N[C@@H](CC(C)C)C(=O)N[C@@H](CCCNC(=N)N)C(=O)N[C@@H](CO)C(=O)N[C@@H](CC(C)C)C(=O)N[C@@H](CCCNC(=N)N)C(=O)N[C@@H](CCC(=O)O)C(=O)N[C@@H](CC(C)C)C(=O)O [Peptide 9019.0056]	> 20000 nM

Provenance of the data: patent US20140377340A1
